Test system: human colon cancer cell line (HT115)
Experiment: MTT cytotoxicity assay, colon cancer cell line
Assay type: cell-based
Settings: Homo sapiens, HT115, read-out: EC50/μM Colon HT115, MTT assay, compounds added to cells over 1 to 3 days
We begin with a simple list: items and their reported EC50.

{"columns": ["compound", "EC50"],
 "data": [
  ["CCOC(=O)C1(NP(=O)(OC[C@H]2O[C@@H](n3cc(/C=C/Br)c(=O)[nH]c3=O)CC2O)Oc2ccc(F)cc2)CCCC1 (stereo partly drawn)", "18.1 µM"],
  ["CC(C)(NP(=O)(OC[C@H]1O[C@@H](n2ccc(N)nc2=O)C(F)(F)C1O)Oc1ccc(Cl)cc1)C(=O)OCc1ccccc1 (stereo partly drawn)", "317 µM"],
  ["O=C(OCc1ccccc1)C1(NP(=O)(OC[C@H]2O[C@@H](n3cc(/C=C/Br)c(=O)[nH]c3=O)CC2O)Oc2ccc(F)cc2)CCCC1 (stereo partly drawn)", "17 µM"],
  ["C[C@H](NP(=O)(OC[C@H]1O[C@@H](n2cc(/C=C/Br)c(=O)[nH]c2=O)CC1O)Oc1ccc(F)cc1)C(=O)OCc1ccccc1 (stereo partly drawn)", "3.5 µM"],
  ["COC(=O)[C@H](C)NP(=O)(OC[C@H]1O[C@@H](n2cc(/C=C/Br)c(=O)[nH]c2=O)CC1O)Oc1ccc(C(F)(F)F)cc1 (stereo partly drawn)", "79.2 µM"],
  ["CC(C)C[C@H](NP(=O)(OC[C@H]1O[C@@H](n2cc(/C=C/Br)c(=O)[nH]c2=O)CC1O)Oc1ccc([N+](=O)[O-])cc1)C(=O)OCc1ccccc1 (stereo partly drawn)", "10.7 µM"],
  ["COC(=O)C1(NP(=O)(OC[C@H]2O[C@@H](n3cc(/C=C/Br)c(=O)[nH]c3=O)CC2O)Oc2ccc(C(F)(F)F)cc2)CCCC1 (stereo partly drawn)", "21.2 µM"],
  ["O=C(OCc1ccccc1)C1(NP(=O)(OC[C@H]2O[C@@H](n3cc(/C=C/Br)c(=O)[nH]c3=O)CC2O)Oc2ccc(C(F)(F)F)cc2)CCCC1 (stereo partly drawn)", "6.4 µM"],
  ["O=c1[nH]c(=O)n([C@H]2CC(O)[C@@H](CO)O2)cc1/C=C/Br (stereo in doubt) [Example A, 5-(2-Bromovinyl)-2′-deoxyuridine, reference compound]", "78.7 µM"],
  ["CC(C)(NP(=O)(OC[C@H]1O[C@@H](n2cc(/C=C/Br)c(=O)[nH]c2=O)CC1O)Oc1ccccc1)C(=O)OCc1ccccc1 (stereo partly drawn)", "14.5 µM"],
  ["C[C@H](NP(=O)(OC[C@H]1O[C@@H](n2cc(/C=C/Br)c(=O)[nH]c2=O)CC1O)Oc1ccc(Cl)cc1)C(=O)OCc1ccccc1 (stereo partly drawn)", "3.4 µM"],
  ["CCOC(=O)C1(NP(=O)(OC[C@H]2O[C@@H](n3cc(/C=C/Br)c(=O)[nH]c3=O)CC2O)Oc2ccc(C(F)(F)F)cc2)CCCC1 (stereo partly drawn)", "15.1 µM"],
  ["CCOC(=O)C(C)(C)NP(=O)(OC[C@H]1O[C@@H](n2cc(/C=C/Br)c(=O)[nH]c2=O)CC1O)Oc1ccccc1 (stereo partly drawn)", "39.7 µM"],
  ["COC(=O)C(C)(C)NP(=O)(OC[C@H]1O[C@@H](n2cc(/C=C/Br)c(=O)[nH]c2=O)CC1O)Oc1ccc([N+](=O)[O-])cc1 (stereo partly drawn)", "24.7 µM"],
  ["CCOC(=O)[C@H](C)NP(=O)(OC[C@H]1O[C@@H](n2cc(/C=C/Br)c(=O)[nH]c2=O)CC1O)Oc1ccc(F)cc1 (stereo partly drawn)", "11 µM"],
  ["COC(=O)C(C)(C)NP(=O)(OC[C@H]1O[C@@H](n2cc(/C=C/Br)c(=O)[nH]c2=O)CC1O)Oc1ccccc1 (stereo partly drawn)", "77.9 µM"],
  ["O=C(OCc1ccccc1)C1(NP(=O)(OC[C@H]2O[C@@H](n3cc(/C=C/Br)c(=O)[nH]c3=O)CC2O)Oc2ccc(Cl)cc2)CCCC1 (stereo partly drawn)", "8.9 µM"],
  ["C[C@H](NP(=O)(OC[C@H]1O[C@@H](n2cc(/C=C/Br)c(=O)[nH]c2=O)CC1O)Oc1ccc([N+](=O)[O-])cc1)C(=O)OCc1ccccc1 (stereo partly drawn)", "9 µM"]
]}

====

We begin with a simple list: items and their reported EC50.
System: human colon cancer cell line (HT115)
Experiment: MTT cytotoxicity assay, colon cancer cell line
Type: cell-based
Conditions: Homo sapiens, HT115, read-out: EC50/μM Colon HT115, MTT assay, compounds added to cells over 1 to 3 days

{"columns": ["molecule", "assayed-target", "unit-symbol", "EC50"],
 "data": [
  ["C[C@H](NP(=O)(OC[C@H]1O[C@@H](n2ccc(N)nc2=O)C(F)(F)C1O)Oc1ccccc1)C(=O)OCc1ccccc1 (stereo partly drawn) [Example 31]", "human colon cancer cell line (HT115)", "µM", 5.7],
  ["CCOC(=O)[C@H](C)NP(=O)(OC[C@H]1O[C@@H](n2cc(/C=C/Br)c(=O)[nH]c2=O)CC1O)Oc1ccc(C(F)(F)F)cc1 (stereo partly drawn) [Example 25]", "human colon cancer cell line (HT115)", "µM", 4.6],
  ["CCOC(=O)C1(NP(=O)(OC[C@H]2O[C@@H](n3cc(/C=C/Br)c(=O)[nH]c3=O)CC2O)Oc2ccc(Cl)cc2)CCCC1 (stereo partly drawn) [Example 33]", "human colon cancer cell line (HT115)", "µM", 97.9],
  ["CCOC(=O)C1(NP(=O)(OC[C@H]2O[C@@H](n3cc(/C=C/Br)c(=O)[nH]c3=O)CC2O)Oc2ccc([N+](=O)[O-])cc2)CCCC1 (stereo partly drawn) [Example 20]", "human colon cancer cell line (HT115)", "µM", 57.3],
  ["C[C@H](NP(=O)(OC[C@H]1O[C@@H](n2cc(/C=C/Br)c(=O)[nH]c2=O)CC1O)Oc1ccc(C(F)(F)F)cc1)C(=O)OCc1ccccc1 (stereo partly drawn) [Example 4]", "human colon cancer cell line (HT115)", "µM", 7.4],
  ["COC(=O)[C@H](C)NP(=O)(OC[C@H]1O[C@@H](n2cc(/C=C/Br)c(=O)[nH]c2=O)CC1O)Oc1ccc(Cl)cc1 (stereo partly drawn) [Example 13]", "human colon cancer cell line (HT115)", "µM", 70.2]
]}

====

We begin with a simple list: items and their reported EC50.
System: human colon cancer cell line (HT115)
Assay: MTT cytotoxicity assay, colon cancer cell line
Type: cell-based
Settings: Homo sapiens, HT115, read-out: EC50/μM Colon HT115, MTT assay, compounds added to cells over 1 to 3 days
observation-type: EC50

{"columns": ["compound", "result"],
 "data": [
  ["CCOC(=O)C(C)(C)NP(=O)(OC[C@H]1O[C@@H](n2cc(/C=C/Br)c(=O)[nH]c2=O)CC1O)Oc1ccc(Cl)cc1 (some centres unmarked) [Example 43]", "174 µM"],
  ["CC(C)C[C@H](NP(=O)(OC[C@H]1O[C@@H](n2cc(/C=C/Br)c(=O)[nH]c2=O)CC1O)Oc1ccccc1)C(=O)OCc1ccccc1 (some centres unmarked) [Example 37]", "7 µM"],
  ["CC(C)(NP(=O)(OC[C@H]1O[C@@H](n2cc(/C=C/Br)c(=O)[nH]c2=O)CC1O)Oc1ccc(Cl)cc1)C(=O)OCc1ccccc1 (some centres unmarked) [Example 44]", "4.5 µM"],
  ["COC(=O)C1(NP(=O)(OC[C@H]2O[C@@H](n3cc(/C=C/Br)c(=O)[nH]c3=O)CC2O)Oc2ccc(Cl)cc2)CCCC1 (some centres unmarked) [Example 32]", "99.3 µM"],
  ["CC(C)(NP(=O)(OCC1OC(n2cc(/C=C/Br)c(=O)[nH]c2=O)CC1O)Oc1ccc(C(F)(F)F)cc1)C(=O)OCc1ccccc1 (centres unmarked) [Example 48]", "7 µM"],
  ["COC(=O)[C@H](C)NP(=O)(OC[C@H]1O[C@@H](n2cc(/C=C/Br)c(=O)[nH]c2=O)CC1O)Oc1ccc(F)cc1 (some centres unmarked) [Example 5]", "17 µM"],
  ["CCOC(=O)C1(NP(=O)(OC[C@H]2O[C@@H](n3cc(/C=C/Br)c(=O)[nH]c3=O)CC2O)Oc2ccccc2)CCCC1 (some centres unmarked) [Example 17]", "81.3 µM"],
  ["CCOC(=O)C(C)(C)NP(=O)(OC[C@H]1O[C@@H](n2cc(/C=C/Br)c(=O)[nH]c2=O)CC1O)Oc1ccc([N+](=O)[O-])cc1 (some centres unmarked) [Example 46]", "224 µM"],
  ["COC(=O)[C@H](C)NP(=O)(OC[C@H]1O[C@@H](n2cc(/C=C/Br)c(=O)[nH]c2=O)CC1O)Oc1ccccc1 (some centres unmarked) [Example 1, reference compound]", "244 µM"],
  ["C[C@H](NP(=O)(OC[C@H]1O[C@@H](n2ccc(N)nc2=O)C(F)(F)C1O)Oc1ccc(Cl)cc1)C(=O)OCc1ccccc1 (some centres unmarked) [Example 40]", "16.1 µM"],
  ["COC(=O)C1(NP(=O)(OC[C@H]2O[C@@H](n3cc(/C=C/Br)c(=O)[nH]c3=O)CC2O)Oc2ccc(F)cc2)CCCC1 (some centres unmarked) [Example 22]", "59.7 µM"],
  ["O=C(OCc1ccccc1)C1(NP(=O)(OC[C@H]2O[C@@H](n3cc(/C=C/Br)c(=O)[nH]c3=O)CC2O)Oc2ccccc2)CCCC1 (some centres unmarked) [Example 18]", "9.7 µM"],
  ["Nc1ccn([C@@H]2O[C@H](CO)[C@@H](O)C2(F)F)c(=O)n1 [Example G, gemcitabine, reference compound]", "606 µM"],
  ["COC(=O)[C@H](C)NP(=O)(OC[C@H]1O[C@@H](n2cc(/C=C/Br)c(=O)[nH]c2=O)CC1O)Oc1ccc([N+](=O)[O-])cc1 (some centres unmarked) [Example 10]", "96.7 µM"],
  ["CCOC(=O)[C@H](C)NP(=O)(OC[C@H]1O[C@@H](n2cc(/C=C/Br)c(=O)[nH]c2=O)CC1O)Oc1ccc([N+](=O)[O-])cc1 (some centres unmarked) [Example 9]", "119 µM"],
  ["COC(=O)C(C)(C)NP(=O)(OC[C@H]1O[C@@H](n2cc(/C=C/Br)c(=O)[nH]c2=O)CC1O)Oc1ccc(Cl)cc1 (some centres unmarked) [Example 42]", "183 µM"],
  ["COC(=O)[C@H](CC(C)C)NP(=O)(OC[C@H]1O[C@@H](n2cc(/C=C/Br)c(=O)[nH]c2=O)CC1O)Oc1ccccc1 (some centres unmarked) [Example 35]", "7.7 µM"],
  ["O=C(OCc1ccccc1)C1(NP(=O)(OC[C@H]2O[C@@H](n3cc(/C=C/Br)c(=O)[nH]c3=O)CC2O)Oc2ccc([N+](=O)[O-])cc2)CCCC1 (some centres unmarked) [Example 21]", "17.2 µM"],
  ["COC(=O)C1(NP(=O)(OC[C@H]2O[C@@H](n3cc(/C=C/Br)c(=O)[nH]c3=O)CC2O)Oc2ccccc2)CCCC1 (some centres unmarked) [Example 16]", "77 µM"],
  ["CC(C)(NP(=O)(OC[C@H]1O[C@@H](n2cc(/C=C/Br)c(=O)[nH]c2=O)CC1O)Oc1ccc([N+](=O)[O-])cc1)C(=O)OCc1ccccc1 (some centres unmarked) [Example 47]", "16.7 µM"],
  ["CCOC(=O)[C@H](C)NP(=O)(OC[C@H]1O[C@@H](n2cc(/C=C/Br)c(=O)[nH]c2=O)CC1O)Oc1ccc(Cl)cc1 (some centres unmarked) [Example 11]", "14.9 µM"],
  ["CC(C)C[C@H](NP(=O)(OC[C@H]1O[C@@H](n2cc(/C=C/Br)c(=O)[nH]c2=O)CC1O)Oc1ccc(Cl)cc1)C(=O)OCc1ccccc1 (some centres unmarked) [Example 39]", "288 µM"],
  ["COC(=O)C1(NP(=O)(OC[C@H]2O[C@@H](n3cc(/C=C/Br)c(=O)[nH]c3=O)CC2O)Oc2ccc([N+](=O)[O-])cc2)CCCC1 (some centres unmarked) [Example 19]", "38.2 µM"]
]}

// provenance: patent USRE47589E1
